target-entity: TAK1/TAB1 (Homo sapiens, UniProt O43318)
Sequence (Q15750 whole entry): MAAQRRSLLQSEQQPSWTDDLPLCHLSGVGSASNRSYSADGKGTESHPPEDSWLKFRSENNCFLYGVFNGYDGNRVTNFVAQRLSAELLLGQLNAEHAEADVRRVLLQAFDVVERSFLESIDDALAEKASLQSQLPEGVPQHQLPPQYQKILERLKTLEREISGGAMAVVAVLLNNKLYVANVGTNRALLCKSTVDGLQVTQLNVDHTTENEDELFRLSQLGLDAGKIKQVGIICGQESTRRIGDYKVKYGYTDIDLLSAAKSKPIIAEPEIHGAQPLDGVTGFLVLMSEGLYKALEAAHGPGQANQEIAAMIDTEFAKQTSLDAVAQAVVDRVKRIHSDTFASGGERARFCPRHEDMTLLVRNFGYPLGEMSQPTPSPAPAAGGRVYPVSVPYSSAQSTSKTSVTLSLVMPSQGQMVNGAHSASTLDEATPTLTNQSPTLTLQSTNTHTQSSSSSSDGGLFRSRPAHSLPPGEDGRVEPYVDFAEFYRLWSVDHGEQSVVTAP
Sequence (O43318 whole entry): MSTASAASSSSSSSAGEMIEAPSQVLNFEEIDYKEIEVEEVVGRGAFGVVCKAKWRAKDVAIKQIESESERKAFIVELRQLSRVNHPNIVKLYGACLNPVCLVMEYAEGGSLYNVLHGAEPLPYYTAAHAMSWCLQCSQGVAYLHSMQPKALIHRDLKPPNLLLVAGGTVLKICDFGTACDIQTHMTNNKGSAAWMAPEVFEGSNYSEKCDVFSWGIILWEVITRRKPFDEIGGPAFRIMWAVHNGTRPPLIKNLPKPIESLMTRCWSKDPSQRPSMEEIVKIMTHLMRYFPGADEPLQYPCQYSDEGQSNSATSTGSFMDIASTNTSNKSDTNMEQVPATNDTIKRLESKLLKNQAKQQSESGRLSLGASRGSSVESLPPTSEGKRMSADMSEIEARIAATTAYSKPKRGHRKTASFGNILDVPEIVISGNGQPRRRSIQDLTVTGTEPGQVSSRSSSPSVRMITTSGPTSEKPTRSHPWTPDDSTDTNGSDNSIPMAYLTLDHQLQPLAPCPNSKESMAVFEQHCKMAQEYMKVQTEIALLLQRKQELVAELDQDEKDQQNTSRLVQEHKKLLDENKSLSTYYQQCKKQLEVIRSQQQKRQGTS
protocol-text: Competitive inhibition of recombinant TAK1-TAB1 assessed as [33P]gamma-ATP incorporation into substrate histone H1 peptide by filter plate assay

# compound, IC50
records = [
    ("O=C1Nc2ccccc2/C1=N/N=C1\\SCC(=O)N1c1cnccc1O", "25 µM"),
    ("O=C1Nc2ccccc2/C1=N/N=C1\\SCC(=O)N1c1ccc(O)cc1", "0.046 µM"),
    ("O=C1Nc2ccccc2/C1=C/C(=O)c1ccc(O)c(O)c1", "0.56 µM"),
    ("O=C1Nc2ccccc2/C1=N/N=C1\\SCC(=O)N1c1cccc(O)c1", "29 µM"),
    ("O=C1CS/C(=N\\N=C2/C(=O)Nc3ccccc32)N1", "> 5 µM"),
    ("O=C1Nc2ccc(OC(F)(F)F)cc2/C1=N/N=C1\\SCC(=O)N1c1ccc(O)cc1", "3 µM"),
    ("O=C1Nc2ccc(Br)cc2/C1=N/N=C1\\SCC(=O)N1c1ccc(O)cc1", "0.0089 µM"),
    ("CCC1S/C(=N\\N=C2/C(=O)Nc3ccc(Cl)cc32)N(c2ccc(O)cc2)C1=O (configuration not stated)", "> 5 µM"),
    ("O=C1Nc2ccccc2/C1=C\\c1ccc(O)c(O)c1", "> 5 µM"),
    ("O=C1Nc2ccc(F)cc2/C1=N/N=C1\\SCC(=O)N1c1ccc(O)cc1", "0.099 µM"),
    ("CC1S/C(=N\\N=C2/C(=O)Nc3ccc(Cl)cc32)N(c2ccc(O)cc2)C1=O (configuration not stated)", "0.63 µM"),
    ("COc1ccc(N2C(=O)CS/C2=N\\N=C2/C(=O)Nc3ccccc32)cc1", "> 5 µM"),
    ("CC(C)C1S/C(=N\\N=C2/C(=O)Nc3ccc(Cl)cc32)N(c2ccc(O)cc2)C1=O (configuration not stated)", "> 5 µM"),
    ("O=C1Nc2ccc(Cl)cc2/C1=N/N=C1\\SCC(=O)N1c1ccc(O)cc1", "0.021 µM"),
    ("O=C1Nc2ccccc2/C1=C/C(=O)c1cccc(O)c1", "4.1 µM"),
    ("O=C1Nc2ccccc2/C1=C/C(=O)c1ccccc1", "> 5 µM"),
    ("CN(C)c1ccc(N2C(=O)CS/C2=N\\N=C2/C(=O)Nc3ccccc32)cc1", "> 50 µM"),
    ("Cc1ccc2c(c1)/C(=N/N=C1\\SCC(=O)N1c1ccc(O)cc1)C(=O)N2", "0.098 µM"),
    ("O=C1Nc2ccccc2/C1=N/N=C1\\SCC(=O)N1c1ccccc1O", "5.8 µM"),
    ("O=C1Nc2ccccc2/C1=N/N=C1\\SCC(=O)N1CC1CCCN1 (configuration not stated)", "30 µM"),
    ("O=C1Nc2ccccc2/C1=N/N=C1\\SCC(=O)N1Cc1ccncc1", "8.2 µM"),
    ("O=C1Nc2ccccc2/C1=C\\c1ccc(O)c(O)c1O", "1.7 µM"),
]

###

protocol-text: Solubility in phosphate buffer at pH 7.4
Type: physicochemical
Reported solubility is given for each of the following molecules.
metric: solubility (µM)

# smi, numeric-readout
rows = [
    ("O=C1Nc2ccc(Br)cc2/C1=N/N=C1\\SCC(=O)N1c1ccc(O)cc1", 3.1),
    ("O=C1Nc2ccccc2/C1=N/N=C1\\SCC(=O)N1c1ccc(O)cc1", 65),
]

###

target-entity: TAK1/TAB1 (Homo sapiens) (UniProt Q15750+O43318)
protocol-text: Competitive inhibition of recombinant TAK1-TAB1 assessed as [33P]gamma-ATP incorporation into substrate histone H1 peptide at 10 uM by filter plate assay
Type: protein-complex assay

# compound, target-entity, inhibition, %
measured = [
    ("O=C1Nc2ccccc2/C1=N/N=C1\\SCC(=O)N1c1ccc(OCc2ccccc2)cc1", "TAK1/TAB1 (Homo sapiens) (UniProt Q15750+O43318)", 6),
    ("O=C1Nc2ccccc2/C1=C\\c1c[nH]cn1", "TAK1/TAB1 (Homo sapiens) (UniProt Q15750+O43318)", 32),
    ("O=C1Nc2ccccc2/C1=N/N=C1\\N=NCN1c1ccc(O)cc1", "TAK1/TAB1 (Homo sapiens) (UniProt Q15750+O43318)", 0),
    ("O=C1Nc2ccccc2C1c1ccnc(Nc2ccccc2O)n1 (stereo unspecified)", "TAK1/TAB1 (Homo sapiens) (UniProt Q15750+O43318)", 52),
    ("O=C1Nc2ccccc2/C1=C/C(=O)c1ccc(O)cc1O", "TAK1/TAB1 (Homo sapiens) (UniProt Q15750+O43318)", 21),
    ("O=C1Nc2ccccc2/C1=N/N=C1\\SCC(=O)N1c1cccc(Oc2ccccc2)c1", "TAK1/TAB1 (Homo sapiens) (UniProt Q15750+O43318)", 0),
    ("Cc1ccc(N2C(=O)CS/C2=N\\N=C2/C(=O)Nc3ccccc32)cc1", "TAK1/TAB1 (Homo sapiens) (UniProt Q15750+O43318)", 0),
    ("O=C1Nc2cccc(Cl)c2/C1=N/N=C1\\SCC(=O)N1c1ccc(O)cc1", "TAK1/TAB1 (Homo sapiens) (UniProt Q15750+O43318)", 4),
    ("O=C1Nc2ccccc2C1c1ccnc(Nc2ccc(O)cc2)n1 (stereo unspecified)", "TAK1/TAB1 (Homo sapiens) (UniProt Q15750+O43318)", 39),
    ("Cc1c(Cl)ccc2c1NC(=O)/C2=N\\N=C1/SCC(=O)N1c1ccc(O)cc1", "TAK1/TAB1 (Homo sapiens) (UniProt Q15750+O43318)", 0),
    ("C/C(C(=O)c1ccccc1)=C1/C(=O)Nc2ccccc21", "TAK1/TAB1 (Homo sapiens) (UniProt Q15750+O43318)", 39),
]

Recorded values, source ChEMBL document CHEMBL1759936.
